Data origin, for the record: ChEMBL document CHEMBL1133185

Measured IC90, listed per entry.
- Tested on: Human immunodeficiency virus 1
- test_details: Plasma antiviral activity was evaluated for RF strain of HIV-1
- Assay type: functional
Give the value in µM but do not write µM after it.

Qu. Please report the recorded IC90 for O=C1Nc2ccc(F)c(F)c2[C@@](C#CC2CC2)(C(F)(F)F)N1 (stereo in doubt) .
Ans. 0.018

Qu. Please report the recorded IC90 for O=C1Nc2ccc(Cl)cc2[C@@](C#CC2CC2)(C(F)(F)F)N1 (stereo in doubt) .
Ans. 0.04

Qu. Please report the recorded IC90 for `O=C1Nc2ccc(F)c(F)c2[C@@](/C=C/C2CC2)(C(F)(F)F)N1` .
Ans. 0.033

Qu. Please report the recorded IC90 for `O=C1Nc2ccc(Cl)cc2[C@@](/C=C/C2CC2)(C(F)(F)F)N1` .
Ans. 0.04

====

- Tested on: Human immunodeficiency virus 1
- test_details: Potency against Mutant HIV-1 sL100I
- Type: functional
Measured IC90, listed per entry.
Give the value in nM but do not write nM after it.

Answered cases to consult:
• O=C1Nc2ccc(F)c(F)c2[C@@](C#CC2CC2)(C(F)(F)F)N1 (stereo in doubt) = 8
• O=C1Nc2ccc(Cl)cc2[C@@](/C=C/C2CC2)(C(F)(F)F)N1 = 11
• O=C1Nc2ccc(F)c(F)c2[C@@](/C=C/C2CC2)(C(F)(F)F)N1 = 5.9

Qu. Please report the recorded IC90 for O=C1Nc2ccc(Cl)cc2[C@@](C#CC2CC2)(C(F)(F)F)N1 (stereo in doubt) .
Ans. 13

====

- study_system: Human immunodeficiency virus type 1 reverse transcriptase (Human immunodeficiency virus 1) (UniProt Q72547)
- test_details: Compound was evaluated for the inhibition of HIV-1 Reverse transcriptase
Measured IC90, listed per entry.
Answer with the number, then the unit.

Answered cases to consult:
- CC(C)C#C[C@@]1(C(F)(F)F)NC(=O)Nc2ccc(F)c(F)c21: 1520 nM
- O=C1Nc2ccc(Cl)cc2[C@](C#CC2CC2)(C(F)(F)F)N1: 267 nM
- O=C1Nc2ccc(Cl)cc2[C@@](C#CC2CC2)(C(F)(F)F)N1 (stereo in doubt): 31 nM
- CC(C)C#C[C@]1(C(F)(F)F)NC(=O)Nc2ccc(F)c(F)c21 (stereo in doubt; 37): 15 nM
- O=C1Nc2ccc(F)c(F)c2[C@](C#CC2CC2)(C(F)(F)F)N1: 6600 nM

Now, please, on to the next compound.
Qu. Please report the recorded IC90 for O=C1Nc2ccc(F)c(F)c2[C@@](C#CC2CC2)(C(F)(F)F)N1 (stereo in doubt) .
Ans. 18 nM

====

Measured IC90, listed per entry.
- Tested on: Human immunodeficiency virus 1
- test_details: Plasma Potency against Mutant HIV-1 K103N
- Type: functional
- condition_context: Human immunodeficiency virus 1, Plasma
Give the value in nM but do not write nM after it.

Answered cases to consult:
* O=C1Nc2ccc(F)c(F)c2[C@@](C#CC2CC2)(C(F)(F)F)N1 (stereo in doubt) | 140
* O=C1Nc2ccc(F)c(F)c2[C@@](/C=C/C2CC2)(C(F)(F)F)N1 | 370
* O=C1Nc2ccc(Cl)cc2[C@@](/C=C/C2CC2)(C(F)(F)F)N1 | 550

Qu. Please report the recorded IC90 for O=C1Nc2ccc(Cl)cc2[C@@](C#CC2CC2)(C(F)(F)F)N1 (stereo in doubt) .
Ans. 210
